Target Desc: type V adenylyl cyclase (Homo sapiens)
Sequence (O95622 whole entry): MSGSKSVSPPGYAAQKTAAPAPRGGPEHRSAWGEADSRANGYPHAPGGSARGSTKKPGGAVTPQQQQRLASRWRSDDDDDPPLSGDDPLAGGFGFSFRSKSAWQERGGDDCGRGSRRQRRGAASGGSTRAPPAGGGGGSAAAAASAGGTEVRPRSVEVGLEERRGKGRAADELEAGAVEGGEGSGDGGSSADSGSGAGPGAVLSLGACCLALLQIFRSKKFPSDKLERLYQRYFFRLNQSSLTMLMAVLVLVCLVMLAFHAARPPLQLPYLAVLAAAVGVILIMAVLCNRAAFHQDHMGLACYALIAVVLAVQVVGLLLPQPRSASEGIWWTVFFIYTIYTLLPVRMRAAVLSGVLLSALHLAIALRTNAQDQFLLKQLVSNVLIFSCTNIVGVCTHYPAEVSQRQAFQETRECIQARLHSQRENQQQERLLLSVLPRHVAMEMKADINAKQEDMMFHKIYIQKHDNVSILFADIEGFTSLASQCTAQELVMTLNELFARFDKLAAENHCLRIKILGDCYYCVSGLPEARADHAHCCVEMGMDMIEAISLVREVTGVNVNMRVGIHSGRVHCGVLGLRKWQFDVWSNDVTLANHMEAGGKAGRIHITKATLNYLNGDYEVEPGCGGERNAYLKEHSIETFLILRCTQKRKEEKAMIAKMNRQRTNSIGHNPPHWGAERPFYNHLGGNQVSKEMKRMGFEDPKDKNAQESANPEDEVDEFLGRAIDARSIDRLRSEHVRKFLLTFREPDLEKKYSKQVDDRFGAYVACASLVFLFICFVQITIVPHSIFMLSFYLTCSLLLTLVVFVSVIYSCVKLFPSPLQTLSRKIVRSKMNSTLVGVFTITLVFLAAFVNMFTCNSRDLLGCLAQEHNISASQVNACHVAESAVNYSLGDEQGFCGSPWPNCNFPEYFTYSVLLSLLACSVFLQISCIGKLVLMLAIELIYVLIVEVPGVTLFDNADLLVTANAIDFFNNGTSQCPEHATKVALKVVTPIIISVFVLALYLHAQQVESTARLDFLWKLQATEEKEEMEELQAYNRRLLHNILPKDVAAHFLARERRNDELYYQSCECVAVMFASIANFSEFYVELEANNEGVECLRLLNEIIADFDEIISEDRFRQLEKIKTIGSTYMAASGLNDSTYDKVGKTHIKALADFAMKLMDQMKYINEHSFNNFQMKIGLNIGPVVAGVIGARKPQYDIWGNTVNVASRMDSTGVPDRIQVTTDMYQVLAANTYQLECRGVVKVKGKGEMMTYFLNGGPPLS
pIC50: −log10 of the molar value.
Note to self: values exactly at 6 are 1.0. So pIC50 at or above 6 is 1.0, below is 0.0.

INSERT INTO measurements (compound, answer_label) VALUES
  ('Nc1nc(F)cc2c1ncn2[C@@H]1CC[C@@H](C(=O)NO)C1 [Compound 10v]', 1.0),
  ('C[C@H]1C[C@@H](n2cnc3c(N)nc(F)nc32)C[C@@H]1C(=O)NO [Compound 10t]', 1.0),
  ('Nc1ncnc2c1nc(C(F)(F)F)n2[C@@H]1CC[C@@H](C(=O)NO)C1 [Compound 10p]', 0.0),
  ('Nc1nc(N)c2ncn([C@@H]3CC[C@@H](C(=O)NO)C3)c2n1 [Compound 10m]', 0.0),
  ('Nc1ncnc2c1ccn2[C@@H]1CC[C@@H](C(=O)O)C1 [Compound 10c]', 0.0),
  ('Cc1nc2c(N)ncnc2n1[C@@H]1CC[C@@H](C(=O)NO)C1 [Compound 10o]', 0.0),
  ('Nc1ncnc2c1ncn2[C@@H]1C[C@H](CO)[C@@H](C(=O)NO)C1 [Compound 10h]', 0.0),
  ('Nc1ncnc2c1ncn2[C@@H]1CC[C@@H](C(=O)NO)C1', 1.0),
  ('Nc1nccc2c1ncn2[C@@H]1CC[C@@H](C(=O)O)C1 [Compound 10a]', 0.0),
  ('Cc1nc(N)c2ncn([C@@H]3CC[C@@H](C(=O)NO)C3)c2n1 [Compound 10k]', 0.0);

Consider the additional compound presented here.
Hi, just wondering whether C[C@H]1C[C@@H](n2cnc3c(N)ncnc32)C[C@@H]1C(=O)NO [Compound 10s] shows pIC50 of 6 or higher. 1.0

###

Below are IC50 values measured for type V adenylyl cyclase (Homo sapiens, UniProt O95622).
# value in µM; strip the unit string

INSERT INTO assay_data (molecule, target_desc, numeric_result) VALUES
  ('Nc1nccc2c1ncn2[C@@H]1CC[C@@H](C(=O)NO)C1 [Compound 10b]', 'type V adenylyl cyclase (Homo sapiens, UniProt O95622)', 0.29),
  ('Nc1nc(F)nc2c1ncn2[C@@H]1CC[C@@H](C(=O)NO)C1 [Compound 10j]', 'type V adenylyl cyclase (Homo sapiens, UniProt O95622)', 0.08);

Give IC50 for Nc1nc(C(F)(F)F)nc2c1ncn2[C@@H]1CC[C@@H](C(=O)NO)C1 [Compound 10l] tested on type V adenylyl cyclase (Homo sapiens, UniProt O95622). 6.45

Quote IC50 with test system type V adenylyl cyclase (Homo sapiens, UniProt O95622) for Nc1ncnc2c1ncn2[C@@H]1C[C@@H](CO)[C@@H](C(=O)NO)C1 [Compound 10i] 3.1

###

Listed next: entries and their corresponding pIC50.
Tested on: H9c2(2-1) myoblast cell line
Test Protocol: Adenylyl cyclase cell-based assay, isoproterenol-stimulated cAMP
Assay Context: Rattus norvegicus; H9c2 cells, isoproterenol 5 mM
// returns pIC50 (minus log10 of molar concentration), number only

Recorded results for 2 molecules are shown here.
INSERT INTO assay_data (molecule, target_desc, numeric_result) VALUES
  ('Nc1nc(F)nc2c1ncn2[C@@H]1CC[C@@H](C(=O)NO)C1 [Compound 10j]', 'H9c2(2-1) myoblast cell line', 5.61),
  ('Nc1ncnc2c1ncn2[C@@H]1CC[C@@H](C(=O)NO)C1', 'H9c2(2-1) myoblast cell line', 4.57);

Now look at this entry.
Fill in reported pIC50 for this entry: Nc1nc(F)cc2c1ncn2[C@@H]1CC[C@@H](C(=O)NO)C1 [Compound 10v] 5.72
